Numbers sourced from paper PMC9654784.

The following compounds are shown together with reported pIC50 values.
biological target: SARS-CoV-2 nsp13 (Severe acute respiratory syndrome coronavirus 2, UniProt P0DTD1); assay: SARS-CoV-2 nsp13 ATPase (NTPase)-associated activity; format: biochemical; settings: concentration required to inhibit nsp13-associated ATPase activity by 50%; 25 nM nsp13, 400 µM ATP
Friendly reminder that pIC50 comes from taking -log10 of the concentration in mol/L.

CC(C)(C)c1cc(NC(=O)NCc2ccccc2Sc2ccc3nnc(-c4ccccc4SCCO)n3c2)n(-c2ccc(O)c(Cl)c2)n1 :: 5.03

Record summary for `CC(C)=CCc1c(O)cc(O)c2c(=O)cc(-c3ccc(O)cc3)oc12` : reported pIC50 = 4.68

---

target: SARS-CoV-2 nsp13 (Severe acute respiratory syndrome coronavirus 2, UniProt P0DTD1); assay: SARS-CoV-2 nsp13 ATPase (NTPase)-associated activity; assay type: biochemical; details: concentration required to inhibit nsp13-associated ATPase activity by 50%; 25 nM nsp13, 400 µM ATP
PARAMETER_MEASURED: IC50

Below: 2 compounds and their reported IC50.
CCO/N=C(\C(=O)N[C@@H]1C(=O)N2C(C(=O)[O-])=C(Sc3nc(-c4cc[n+](C)cc4)cs3)CS[C@H]12)c1nsc(NP(=O)(O)O)n1 :: > 30 µM
OC[C@H]1O[C@@H](Oc2cc(O)cc(/C=C/c3ccc(O)cc3)c2)[C@H](O)[C@@H](O)[C@@H]1O :: > 30 µM

Please look at the following compound next.
Form field, IC50 with SARS-CoV-2 nsp13 (Severe acute respiratory syndrome coronavirus 2, UniProt P0DTD1), item `CC(C)(Cc1cccc(CC(=O)NCc2cccc(-c3ccc(O)cc3)c2)c1)NC[C@H](O)c1ccc(O)c(NS(C)(=O)=O)c1` : > 30 µM
